growth inhibition (GI) values for the compounds below.
System: MDA-MB-231
EXPERIMENT DESCRIPTION: Growth inhibition of human MDA-MB-231 cells after 48 hrs by cell counting analysis
Format: functional
REPORTED CONDITIONS: at 10 µM
Provide the reading as a plain figure in %.

Task: Return reported growth inhibition (GI) for target or system MDA-MB-231, item CN1CCN(CCC(=O)Nc2nc(-c3ccc(Br)cc3)cs2)CC1 .
Result: 64.3

Task: Lab note: record growth inhibition (GI) of CN1CCN(CCC(=O)Nc2nc(-c3ccc(Cl)cc3)cs2)CC1 tested on MDA-MB-231.
Result: 25.6

Task: Recall the reported growth inhibition (GI) of Cc1ccc(-c2csc(NC(=O)CN3CCN(C)CC3)n2)cc1 on MDA-MB-231 and write it down.
Result: 34.2

Task: Tell me its growth inhibition (GI) on MDA-MB-231: O=C(CCCl)Nc1nc(-c2ccc(Cl)cc2)cs1
Result: 44.6

Okay, next one:
Task: Jot down growth inhibition (GI) (MDA-MB-231) of O=C(CN1CCN(c2ccccc2)CC1)Nc1nc(-c2ccc(Br)cc2)cs1 .
Result: 22.2
